From: patent EP1200406B1

- tested-on: human recombinant α1a adrenoceptor (Homo sapiens, UniProt P35348)
- Construct: expressed in transfected cells; host or cells: CHO cells (membranes)
- Sequence (P35348 1-466): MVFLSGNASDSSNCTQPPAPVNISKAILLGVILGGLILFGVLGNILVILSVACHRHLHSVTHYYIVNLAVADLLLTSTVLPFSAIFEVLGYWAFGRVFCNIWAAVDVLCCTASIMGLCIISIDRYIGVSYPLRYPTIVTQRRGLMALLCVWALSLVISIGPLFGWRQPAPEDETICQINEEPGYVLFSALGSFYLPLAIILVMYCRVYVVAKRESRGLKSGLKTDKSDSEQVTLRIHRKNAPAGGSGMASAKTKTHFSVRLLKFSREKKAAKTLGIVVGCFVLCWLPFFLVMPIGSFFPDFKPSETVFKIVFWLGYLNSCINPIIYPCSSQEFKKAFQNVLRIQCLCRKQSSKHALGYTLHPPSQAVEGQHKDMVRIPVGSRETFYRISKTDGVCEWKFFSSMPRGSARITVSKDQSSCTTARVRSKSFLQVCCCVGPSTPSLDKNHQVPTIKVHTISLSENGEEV
- assay-explanation: Radioligand binding ([3H]prazosin) on membranes of CHO cells expressing cloned α1a adrenoceptor
- details: human cloned receptor, CHO cell membranes, 0.2 nM [3H]prazosin; read-out: Affinity (Ki) α1a
I'd be grateful if you could share measured pKi for these entries.
One number for each entry, as −log10 of the molar value.

Past entries and their recorded results:
smiles	tested-on	pKi
O=C1CC2(CCCCC2)CC(=O)N1CCN1CCN(c2cc(Cl)ccc2Cl)CC1	human recombinant α1a adrenoceptor (Homo sapiens, UniProt P35348)	6.48
O=C1CC2(CCCC2)CC(=O)N1CCN1CCN(c2cc(Br)ccc2Br)CC1	human recombinant α1a adrenoceptor (Homo sapiens, UniProt P35348)	6.94
O=C1CCCC(=O)N1CCN1CCN(c2cc(Cl)ccc2Cl)CC1	human recombinant α1a adrenoceptor (Homo sapiens, UniProt P35348)	7.11
O=C1CC2(CCCC2)C(=O)N1CCN1CCN(c2cc(Cl)ccc2Cl)CC1	human recombinant α1a adrenoceptor (Homo sapiens, UniProt P35348)	7.17

Here is the next item to consider.
Looking for the measured pKi of O=C1CC2(CCCC2)CC(=O)N1CCN1CCN(c2cc(F)ccc2Cl)CC1 , can you help?
6.97

* * *

- tested-on: human recombinant α1d adrenoceptor (Homo sapiens, UniProt P25100)
- Construct: expressed in transfected cells; host or cells: CHO cells (membranes)
- Sequence (P25100 whole entry): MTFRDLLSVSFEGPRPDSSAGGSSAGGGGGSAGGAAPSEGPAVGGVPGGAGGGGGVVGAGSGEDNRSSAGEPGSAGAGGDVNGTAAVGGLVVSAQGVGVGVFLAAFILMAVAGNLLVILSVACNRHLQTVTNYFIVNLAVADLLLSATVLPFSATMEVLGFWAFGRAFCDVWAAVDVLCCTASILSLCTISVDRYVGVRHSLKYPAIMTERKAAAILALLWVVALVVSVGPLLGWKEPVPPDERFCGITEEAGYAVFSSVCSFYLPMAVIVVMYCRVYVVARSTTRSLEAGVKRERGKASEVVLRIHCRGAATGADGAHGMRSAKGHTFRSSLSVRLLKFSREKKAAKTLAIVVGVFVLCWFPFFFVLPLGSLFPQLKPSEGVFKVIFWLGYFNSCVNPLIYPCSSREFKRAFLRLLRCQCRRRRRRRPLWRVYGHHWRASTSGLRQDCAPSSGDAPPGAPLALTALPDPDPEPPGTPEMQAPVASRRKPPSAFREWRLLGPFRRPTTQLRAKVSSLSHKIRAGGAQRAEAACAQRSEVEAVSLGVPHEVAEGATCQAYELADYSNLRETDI
- assay-explanation: Radioligand binding ([3H]prazosin) on membranes of CHO cells expressing cloned α1d adrenoceptor
- details: human cloned receptor, CHO cell membranes, 0.2 nM [3H]prazosin; read-out: Affinity (Ki) α1d
Ki strictly less than 2 nM = 1 (yes). Otherwise 0 (no).

compound	tested-on	category-label
O=C1CC2(CCCCC2)CC(=O)N1CCN1CCN(c2cc(Cl)ccc2Cl)CC1 [Example 11]	human recombinant α1d adrenoceptor (Homo sapiens, UniProt P25100)	0 (no)

I'd appreciate it if you could check whether N#Cc1ccc(Cl)cc1N1CCN(CCN2C(=O)CC3(CCCC3)CC2=O)CC1 [Example 8] has Ki smaller than 2 nM.
1 (yes)

One more compound: O=C1CC2(CCCCC2)CCN1CCN1CCN(c2cc(Cl)ccc2Cl)CC1 [Example 25]
1 (yes)

One more compound: O=C1CC2(CCCC2)CC(=O)N1CCN1CCC(c2cc(Cl)ccc2Cl)CC1 [Example 17]
1 (yes)

One more compound: Cc1ccc(F)c(N2CCN(CCN3C(=O)CC4(CCCC4)CC3=O)CC2)c1 [Example 4]
0 (no)

* * *

I'd be grateful if you could share measured pKi for these entries.
- tested-on: human 5-HT1A-serotoninergic receptor (Homo sapiens, UniProt P08908)
- Construct: expressed in transfected cells; host or cells: HeLa cells (membranes)
- Sequence (P08908 1-422): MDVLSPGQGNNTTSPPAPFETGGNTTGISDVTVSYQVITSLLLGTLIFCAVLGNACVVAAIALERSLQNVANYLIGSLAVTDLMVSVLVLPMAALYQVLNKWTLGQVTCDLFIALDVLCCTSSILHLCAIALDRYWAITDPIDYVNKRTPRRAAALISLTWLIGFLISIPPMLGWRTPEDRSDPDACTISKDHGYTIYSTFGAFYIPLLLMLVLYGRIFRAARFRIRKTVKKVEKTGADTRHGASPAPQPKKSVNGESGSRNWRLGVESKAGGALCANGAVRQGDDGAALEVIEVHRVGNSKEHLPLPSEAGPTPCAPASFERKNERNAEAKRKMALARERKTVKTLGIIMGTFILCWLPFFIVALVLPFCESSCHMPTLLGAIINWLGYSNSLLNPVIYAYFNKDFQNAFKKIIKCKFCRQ
- assay-explanation: Radioligand binding ([3H]8-OH-DPAT) on membranes of HeLa cells expressing cloned 5-HT1A receptor
- details: read-out: Affinity (Ki) 5-HT1A
Give bare numbers, as −log10 of the molar value.

Past entries and their recorded results:
smiles	pKi
O=C1CC2(CCCCCC2)CC(=O)N1CCN1CCN(c2cc(Cl)ccc2Cl)CC1	7.45
O=C1CC2(CCCC2)CCN1CCN1CCN(c2cc(F)c(F)cc2F)CC1	6.67

Here is the next item to consider.
Looking for the measured pKi of O=C1CC2(CCCCC2)CCN1CCN1CCN(c2cc(Cl)ccc2Cl)CC1 , can you help?
7.39

* * *

- tested-on: human recombinant α1b adrenoceptor (Homo sapiens, UniProt P35368)
- Sequence (P35368 whole entry): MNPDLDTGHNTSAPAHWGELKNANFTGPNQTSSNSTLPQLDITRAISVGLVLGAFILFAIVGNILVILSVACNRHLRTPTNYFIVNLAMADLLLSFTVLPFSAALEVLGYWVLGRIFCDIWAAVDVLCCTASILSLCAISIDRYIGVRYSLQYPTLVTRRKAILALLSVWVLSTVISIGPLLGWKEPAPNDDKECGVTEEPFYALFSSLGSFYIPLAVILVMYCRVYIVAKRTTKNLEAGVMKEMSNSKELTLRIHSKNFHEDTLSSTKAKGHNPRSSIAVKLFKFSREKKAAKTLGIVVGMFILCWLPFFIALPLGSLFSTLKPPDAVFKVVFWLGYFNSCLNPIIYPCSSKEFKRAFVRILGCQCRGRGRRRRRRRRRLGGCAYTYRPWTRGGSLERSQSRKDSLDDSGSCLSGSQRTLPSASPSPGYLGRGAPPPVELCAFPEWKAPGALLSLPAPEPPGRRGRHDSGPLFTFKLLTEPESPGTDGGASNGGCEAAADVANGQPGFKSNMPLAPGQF
- assay-explanation: Radioligand binding ([3H]prazosin) on membranes of CHO cells expressing cloned α1b adrenoceptor
- details: human cloned receptor, CHO cell membranes, 0.2 nM [3H]prazosin; read-out: Affinity (Ki) α1b
measurement-type: Ki (µM)
One number for each entry, in µM.

Past entries and their recorded results:
compound	tested-on	reported-measurement
O=C1CC2(CCC2)CC(=O)N1CCN1CCN(c2cc(Cl)ccc2Cl)CC1	human recombinant α1b adrenoceptor (Homo sapiens, UniProt P35368)	0.0796
O=C1CC2(CCCC2)CC(=O)N1CCN1CCN(c2cc(I)ccc2Cl)CC1	human recombinant α1b adrenoceptor (Homo sapiens, UniProt P35368)	0.448
COc1ccccc1N1CCN(CCN2C(=O)CC3(CCCC3)CC2=O)CC1 [BMY-7378, reference compound]	human recombinant α1b adrenoceptor (Homo sapiens, UniProt P35368)	0.069
O=C1CC2(C=CN1CCN1CCN(c3cc(Cl)ccc3Cl)CC1)CCCC2	human recombinant α1b adrenoceptor (Homo sapiens, UniProt P35368)	0.0158
O=C1CC2(CCCC2)C(=O)N1CCN1CCN(c2cc(Cl)ccc2Cl)CC1	human recombinant α1b adrenoceptor (Homo sapiens, UniProt P35368)	0.0836
O=C1CC2(CCCC2)CCN1CCN1CCN(c2cc(F)c(F)cc2F)CC1	human recombinant α1b adrenoceptor (Homo sapiens, UniProt P35368)	0.0227

Here is the next item to consider.
Looking for the measured Ki of Cc1ccc(C)c(N2CCN(CCN3C(=O)CC4(CCCC4)CC3=O)CC2)c1 , can you help?
0.168

* * *

I'd be grateful if you could share measured Ki for these entries.
- tested-on: human 5-HT1A-serotoninergic receptor (Homo sapiens, UniProt P08908)
- Construct: expressed in transfected cells; host or cells: HeLa cells (membranes)
- assay-explanation: Radioligand binding ([3H]8-OH-DPAT) on membranes of HeLa cells expressing cloned 5-HT1A receptor
- details: read-out: Affinity (Ki) 5-HT1A

Past entries and their recorded results:
smiles	Ki
O=C1CC2(CCCC2)C(=O)N1CCN1CCN(c2cc(Cl)ccc2Cl)CC1	> 1 µM
O=C1CCC(=O)N1CCN1CCN(c2cc(Cl)ccc2Cl)CC1	> 1 µM

Here is the next item to consider.
Looking for the measured Ki of O=C1CC2(CCC2)CC(=O)N1CCN1CCN(c2cc(Cl)ccc2Cl)CC1 , can you help?
> 1 µM
